All figures here come from ChEMBL document CHEMBL1140136.

Reported pKi for target or system 5-hydroxytryptamine receptor 7 (Rattus norvegicus, UniProt P32305), by entry.
# pKi = -log10(concentration in molar units)

Here's what some known entries look like.
# mol, testedSystem, reportedMeasurement
records = [
    ("O=C(CCCCCN1CCN(c2ccccc2-c2ccccc2)CC1)N1Cc2ccccc2C1", "5-hydroxytryptamine receptor 7 (Rattus norvegicus, UniProt P32305)", 8.08),
    ("COc1ccccc1N1CCN(CCCCCC(=O)NCc2ccccc2)CC1", "5-hydroxytryptamine receptor 7 (Rattus norvegicus, UniProt P32305)", 6.65),
]

**Q:** Please look up its pKi: CC(C)c1ccccc1N1CCN(CCCCCC(=O)N2Cc3ccccc3C2)CC1
**A:** 7.27

**Q:** Please look up its pKi: COc1ccccc1N1CCN(CCCCCC(=O)N2CCc3ccccc3C2)CC1
**A:** 7.51

**Q:** Please look up its pKi: CSc1ccccc1N1CCN(CCCCCC(=O)NCc2ccccc2)CC1
**A:** 7.66

**Q:** Please look up its pKi: CC(C)c1ccccc1N1CCN(CCCCCC(=O)N2CCc3ccccc3C2)CC1
**A:** 8.22

**Q:** Please look up its pKi: N#Cc1ccc(CNC(=O)CCCCCN2CCN(c3ccccc3-c3ccccc3)CC2)cc1
**A:** 9.24

**Q:** Please look up its pKi: COc1ccccc1N1CCN(CCCCCC(=O)NCc2ccc(C#N)cc2)CC1
**A:** 6.53

**Q:** Please look up its pKi: COc1ccccc1N1CCN(CCCCCC(=O)N2Cc3ccccc3C2)CC1
**A:** 6.75

* * *

methodSummary: Plasma concentration in CD1 albino mouse at 10 mg/kg, ip after 1 hr
Format: ADME, organism-based
Set-up: dose 10 mg/kg, route intraperitoneal
measuredParameter: concentration at 1 h

**Q:** Please look up its concentration at 1 h: CSc1ccccc1N1CCN(CCCCCC(=O)NC2CCCc3ccccc32)CC1 (stereo unspecified)
**A:** < 100 ng/mL

* * *

Reported pKi for target or system UniProt:P08908, by entry.
# pKi = -log10(concentration in molar units)

Here's what some known entries look like.
# mol, testedSystem, pKi
measured = [
    ("O=C(CCCCCN1CCN(c2ccccc2-c2ccccc2)CC1)N1CCc2ccccc2C1", "UniProt:P08908", 7.02),
    ("CC(C)c1ccccc1N1CCN(CCCCCC(=O)N2CCc3ccccc3C2)CC1", "UniProt:P08908", 8.43),
    ("CS(=O)(=O)Oc1ccc(CNC(=O)CCCCCN2CCN(c3ccccc3-c3ccccc3)CC2)cc1", "UniProt:P08908", 6.97),
    ("CC(C)c1ccccc1N1CCN(CCCCCC(=O)NCc2ccc(OS(C)(=O)=O)cc2)CC1", "UniProt:P08908", 7.24),
]

**Q:** Please look up its pKi: CC(C)c1ccccc1N1CCN(CCCCCC(=O)NCc2ccc(C#N)cc2)CC1
**A:** 7.28

* * *

testedSystem: 5-hydroxytryptamine receptor 1A (Homo sapiens, UniProt P08908)
Sequence (P08908 whole entry): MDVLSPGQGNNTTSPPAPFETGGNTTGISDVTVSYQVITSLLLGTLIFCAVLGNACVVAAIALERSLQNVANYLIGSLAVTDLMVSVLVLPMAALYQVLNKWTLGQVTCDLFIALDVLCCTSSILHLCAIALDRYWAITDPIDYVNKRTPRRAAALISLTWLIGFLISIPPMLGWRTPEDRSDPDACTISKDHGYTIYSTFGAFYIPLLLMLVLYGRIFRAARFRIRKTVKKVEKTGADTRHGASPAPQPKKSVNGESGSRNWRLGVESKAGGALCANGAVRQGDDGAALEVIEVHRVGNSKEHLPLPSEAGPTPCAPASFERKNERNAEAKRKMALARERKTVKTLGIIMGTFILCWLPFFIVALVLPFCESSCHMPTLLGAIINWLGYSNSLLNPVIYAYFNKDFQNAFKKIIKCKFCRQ
measuredParameter: pKi
# pKi = -log10(concentration in molar units)

# mol, pKi
data = [
    ("COc1ccccc1N1CCN(CCCCCC(=O)NCc2ccccc2)CC1", 7.89),
    ("O=C(CCCCCN1CCN(c2ccccc2-c2ccccc2)CC1)NCc1ccccc1", 6.79),
]

Please examine the following record next.
**Q:** Lab note: need pKi with 5-hydroxytryptamine receptor 1A (Homo sapiens, UniProt P08908) for entry COc1ccccc1N1CCN(CCCCCC(=O)N2CCc3ccccc3C2)CC1 , please look it up.
**A:** 7.40
